tested on: 317291-083-R-J1-PDC complex spheroids, viability; assay: Anticancer human tumor 317291-083-R-J1-PDC patient-derived soft tissue sarcoma cell line growth inhibition [GQUAD]; details: second compound 0.1 µM; first compound 0.316 µM; active compounds read low
Please note: viability, T/C exactly at 90% is f. Only values below 90% get t.

Answered cases to consult:
CC(C)(O)C1CCC(Nc2ccc3ncc(-c4cccc(C(F)(F)F)c4)n3n2)CC1 (stereo unspecified) + Cc1[nH]c2ccc(F)cc2c1-c1nc2c3cccnc3c3ncccc3c2[nH]1; t
CC1COCCN1c1cc(C2(S(C)(=N)=O)CC2)nc(-c2ccnc3[nH]ccc23)n1 (stereo unspecified) + Cc1cnc(CNC(=O)c2c(=O)c3ccc(N4CCCN(C)CC4)nc3n3c2sc2ccccc23)cn1; t
O=c1[nH]cc(F)c(=O)[nH]1 + CN(C)c1ccc(Nc2c3ccc(NC(=O)CCN4CCCC4)cc3nc3cc(NC(=O)CCN4CCCC4)ccc23)cc1; f

Is viability, T/C strictly under 90% for the entry Nc1ccn(C2OC(CO)C(O)C2(F)F)c(=O)n1 (stereo unspecified) + Cc1[nH]c2ccc(F)cc2c1-c1nc2c3cccnc3c3ncccc3c2[nH]1 ? t

Is viability, T/C strictly under 90% for the entry COc1ccc([C@@H](O)c2cc(-c3ncnc4cc(N5CCOCC5)ccc34)c(F)cc2Cl)nn1 + Cc1cnc(CNC(=O)c2c(=O)c3ccc(N4CCCN(C)CC4)nc3n3c2sc2ccccc23)cn1 ? t

----------
tested on: 317291-083-R-J1-PDC complex spheroids, viability; assay: Anticancer human tumor 317291-083-R-J1-PDC cell line growth inhibition [GQUAD]; conditions: second compound 0.0316 µM; first compound 1 µM; active compounds read low;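 note: spheroids exposed to compounds for one week before readout; percent viability relative to DMSO vehicle wells taken as 100%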
Form field: viability, T/C (one value per entry).
Express the result in % but write the number alone.

C=CC(=O)N1CCN(c2nc(=O)n(-c3c(C)ccnc3C(C)C)c3nc(-c4c(O)cccc4F)c(F)cc23)C(C)C1 (stereo not drawn) + Cc1[nH]c2ccc(F)cc2c1-c1nc2c3cccnc3c3ncccc3c2[nH]1; 89.5
Cc1cccc(N(C)C(=O)C2C(O)CCN2c2nc(C)cc(C(F)(F)F)c2C#N)c1 (stereo not drawn) + Cc1[nH]c2ccc(F)cc2c1-c1nc2c3cccnc3c3ncccc3c2[nH]1; 120
CC(C)(O)C1CCC(Nc2ccc3ncc(-c4cccc(C(F)(F)F)c4)n3n2)CC1 (stereo not drawn) + CN(C)c1ccc(Nc2c3ccc(NC(=O)CCN4CCCC4)cc3nc3cc(NC(=O)CCN4CCCC4)ccc23)cc1; 37.1

Entry under test: CC(C)(O)C1CCC(Nc2ccc3ncc(-c4cccc(C(F)(F)F)c4)n3n2)CC1 (stereo not drawn) + Cc1cnc(CNC(=O)c2c(=O)c3ccc(N4CCCN(C)CC4)nc3n3c2sc2ccccc23)cn1 . Its viability, T/C was 19

Entry under test: C#Cc1c(F)ccc2cc(O)cc(-c3ncc4c(N5CC6CCC(C5)N6)nc(OCC56CCCN5CC(F)C6)nc4c3F)c12 (stereo not drawn) + Cc1[nH]c2ccc(F)cc2c1-c1nc2c3cccnc3c3ncccc3c2[nH]1 . Its viability, T/C was 99

Entry under test: Nc1ccn(C2OC(CO)C(O)C2(F)F)c(=O)n1 (stereo not drawn) + Cc1cnc(CNC(=O)c2c(=O)c3ccc(N4CCCN(C)CC4)nc3n3c2sc2ccccc23)cn1 . Its viability, T/C was 11.2

Entry under test: CC(=O)O[C@H]1C(=O)[C@@]2(C)[C@H]([C@H](OC(=O)c3ccccc3)[C@]3(O)C[C@H](OC(=O)[C@H](O)[C@@H](NC(=O)c4ccccc4)c4ccccc4)C(C)=C1C3(C)C)[C@]1(OC(C)=O)CO[C@@H]1C[C@@H]2O + Cc1cnc(CNC(=O)c2c(=O)c3ccc(N4CCCN(C)CC4)nc3n3c2sc2ccccc23)cn1 . Its viability, T/C was 9.72

Entry under test: CC(C)n1c(=O)n(C)c2cnc3cc(F)c(-c4ccc(OCCCN5CCCCC5)nc4)cc3c21 + Cc1cnc(CNC(=O)c2c(=O)c3ccc(N4CCCN(C)CC4)nc3n3c2sc2ccccc23)cn1 . Its viability, T/C was 29.2

Entry under test: CC1COCCN1c1cc(-c2ccnn2C)c2ccnc(-c3ccn[nH]3)c2n1 (stereo not drawn) + Cc1cnc(CNC(=O)c2c(=O)c3ccc(N4CCCN(C)CC4)nc3n3c2sc2ccccc23)cn1 . Its viability, T/C was 10.9

Entry under test: O=c1[nH]cc(F)c(=O)[nH]1 + CN(C)c1ccc(Nc2c3ccc(NC(=O)CCN4CCCC4)cc3nc3cc(NC(=O)CCN4CCCC4)ccc23)cc1 . Its viability, T/C was 74.3

Entry under test: CC1COCCN1c1cc(-c2ccnn2C)c2ccnc(-c3ccn[nH]3)c2n1 (stereo not drawn) + CN(C)c1ccc(Nc2c3ccc(NC(=O)CCN4CCCC4)cc3nc3cc(NC(=O)CCN4CCCC4)ccc23)cc1 . Its viability, T/C was 13.8

Entry under test: COc1cccc2c1C(=O)c1c(O)c3c(c(O)c1C2=O)CC(O)(C(=O)CO)CC3OC1CC(N)C(O)C(C)O1 (stereo not drawn) + Cc1[nH]c2ccc(F)cc2c1-c1nc2c3cccnc3c3ncccc3c2[nH]1 . Its viability, T/C was 9.79
